- Test system: Staphylococcus epidermidis
- Test description: Antibacterial activity against Staphylococcus epidermidis ATCC 49134 after 18 hrs by serial microdilution method
- Assay type: functional
- Study conditions: ATCC 49134, 18 h
Each item that follows carries a reported MIC.

Below are worked cases with known answers.
INSERT INTO assay_data (record_smiles, test_value) VALUES
  ('[Li+].[O-][Cl+3]([O-])([O-])[O-]', '> 4 µg/mL'),
  ('CO[C@H]1/C=C/O[C@@]2(C)Oc3c(C)c(O)c4c(O)c(c(C=O)c(O)c4c3C2=O)NC(=O)/C(C)=C\C=C\[C@H](C)[C@H](O)[C@@H](C)[C@@H](O)[C@@H](C)[C@H](OC(C)=O)[C@@H]1C', '0.125 µg/mL');

Moving on to another compound below.
Problem: Fill blank: measured MIC of the compound "NCc1ccc(F)cc1" is ____.
Solution: > 4 µg/mL

###

- Test system: Staphylococcus epidermidis
- Test description: Antibacterial activity against Staphylococcus epidermidis ATCC 49134 after 18 hrs by serial microdilution method
- Assay type: functional
- Study conditions: ATCC 49134, 18 h
// MIC lookup, one value per entry

Solved entries:
INSERT INTO measurements (molecule, test_value) VALUES
  ('CO[C@H]1/C=C/O[C@@]2(C)Oc3c(C)c(O)c4c(O)c(c(CNCC5COCCOCCOCCOCCOCCO5)c(O)c4c3C2=O)NC(=O)/C(C)=C\C=C\[C@H](C)[C@H](O)[C@@H](C)[C@@H](O)[C@@H](C)[C@H](OC(C)=O)[C@@H]1C (some centres undefined)', '1 µg/mL'),
  ('CO[C@H]1/C=C/O[C@@]2(C)Oc3c(C)c(O)c4c(O)c(c(CN5CCOCCOCCOCCOCCOCC5)c(O)c4c3C2=O)NC(=O)/C(C)=C\C=C\[C@H](C)[C@H](O)[C@@H](C)[C@@H](O)[C@@H](C)[C@H](OC(C)=O)[C@@H]1C', '2 µg/mL'),
  ('NCc1ccccc1Cl', '> 4 µg/mL');

Please examine the following record next.
Problem: Can you share its MIC? I mean this molecule: "NCCc1c[nH]cn1"
Solution: > 4 µg/mL

###

// reported logP per item
- Test description: Octanol-water partition coefficient, log P of the compound by UV-vis method
- Format: physicochemical
Write the value as a bare number.

INSERT INTO measurements (record_smiles, test_value) VALUES
  ('CO[C@H]1/C=C/O[C@@]2(C)Oc3c(C)c(O)c4c(O)c(c(CNc5ccc6c(c5)OCCOCCOc5ccccc5OCCOCCO6)c(O)c4c3C2=O)NC(=O)/C(C)=C\C=C\[C@H](C)[C@H](O)[C@@H](C)[C@@H](O)[C@@H](C)[C@H](OC(C)=O)[C@@H]1C', 1.12);

Attention now shifts to the item below.
Problem: I am curious: what logP value has been reported for "CO[C@H]1/C=C/O[C@@]2(C)Oc3c(C)c(O)c4c(O)c(c(CN5CCOCCOCCOCCOCC5)c(O)c4c3C2=O)NC(=O)/C(C)=C\C=C\[C@H](C)[C@H](O)[C@@H](C)[C@@H](O)[C@@H](C)[C@H](OC(C)=O)[C@@H]1C" ?
Solution: -0.92
